# MEASURED TARGET: T1, human CD22, full length, on CHO-K1-human CD22 2C4 cells (human, UniProt P20273 20-847)
# T1 construct: Full-length human CD22 (NCBI NP_001762.2) stably transfected into CHO-K1
# T1 sequence: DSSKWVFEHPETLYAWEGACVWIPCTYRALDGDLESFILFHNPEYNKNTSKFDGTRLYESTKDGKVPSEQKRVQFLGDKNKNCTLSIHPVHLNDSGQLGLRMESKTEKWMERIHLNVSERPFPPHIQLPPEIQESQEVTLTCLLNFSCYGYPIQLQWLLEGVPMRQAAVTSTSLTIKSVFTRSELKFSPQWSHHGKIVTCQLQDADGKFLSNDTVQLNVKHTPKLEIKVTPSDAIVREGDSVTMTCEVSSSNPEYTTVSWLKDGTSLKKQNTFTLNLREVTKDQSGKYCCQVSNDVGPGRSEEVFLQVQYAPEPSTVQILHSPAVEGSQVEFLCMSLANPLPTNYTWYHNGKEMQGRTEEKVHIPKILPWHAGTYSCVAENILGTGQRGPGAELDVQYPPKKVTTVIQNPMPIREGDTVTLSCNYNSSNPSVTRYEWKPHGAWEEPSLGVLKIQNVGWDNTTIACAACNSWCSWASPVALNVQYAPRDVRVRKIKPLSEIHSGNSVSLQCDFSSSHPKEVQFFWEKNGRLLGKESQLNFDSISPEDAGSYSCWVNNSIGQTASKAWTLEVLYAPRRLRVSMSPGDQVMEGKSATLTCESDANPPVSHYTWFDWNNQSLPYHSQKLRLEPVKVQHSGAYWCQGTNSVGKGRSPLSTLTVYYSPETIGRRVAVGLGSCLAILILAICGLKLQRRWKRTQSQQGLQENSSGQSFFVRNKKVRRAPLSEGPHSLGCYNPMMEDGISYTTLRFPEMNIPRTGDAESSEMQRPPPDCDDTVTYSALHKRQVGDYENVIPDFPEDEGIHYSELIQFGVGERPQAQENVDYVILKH
# EXPERIMENT SUMMARY: FACS, CHO-K1-human CD22 2C4 cells
pEC50: −log10 of the molar value.
# reported pEC50; entries follow
ATTRIBUTE MEASURED: pEC50

BINDER: F1.192.1 human-murine chimeric antibody (antibody, human IgG1, kappa, V domains shown, Chimeric, human IgG1 / kappa) VH: AVQLQQSGVELVRPGASVKLSCTGSDFNIKEDYIHWVKQRPEQGLEWIGWIDPENGDTEYASKFQGKATITADTSSNTAYLQLSSLTSEDTAVYYCATYGSLDYWGQGTTLTVSS VL: DIKMTQSPSSMYAFLGERVTITCKASQGINSFLTWFQQKPGKSPKTLIYRANRLVDGVPSRFSGSGSGQDYSLTISSLEYEDVGIYYCLQYDEFPRTFGGGTKLEIKR
READOUT VALUE: 9.09

BINDER: HA22-hIgG1 (antibody, V domains shown) VH: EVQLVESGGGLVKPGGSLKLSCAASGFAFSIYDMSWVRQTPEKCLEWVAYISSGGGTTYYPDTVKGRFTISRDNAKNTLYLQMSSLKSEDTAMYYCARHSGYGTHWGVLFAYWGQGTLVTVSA VL: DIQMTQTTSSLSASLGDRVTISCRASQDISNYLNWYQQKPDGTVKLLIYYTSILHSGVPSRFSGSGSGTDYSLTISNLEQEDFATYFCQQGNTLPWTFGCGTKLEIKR
READOUT VALUE: 9.09

BINDER: F1.120.15 human-murine chimeric antibody (antibody, human IgG1, kappa, V domains shown, Chimeric, human IgG1 / kappa) VH: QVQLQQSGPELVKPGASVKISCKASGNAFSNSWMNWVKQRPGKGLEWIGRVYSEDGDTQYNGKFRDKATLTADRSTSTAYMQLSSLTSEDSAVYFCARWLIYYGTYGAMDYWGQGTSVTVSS VL: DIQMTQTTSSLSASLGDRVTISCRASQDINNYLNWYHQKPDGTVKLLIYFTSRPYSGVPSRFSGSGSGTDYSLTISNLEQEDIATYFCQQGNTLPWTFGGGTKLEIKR
READOUT VALUE: 8.97

BINDER: F1.267.9 human-murine chimeric antibody (antibody, human IgG1, kappa, V domains shown, Chimeric, human IgG1 / kappa; VL tied by name) VH: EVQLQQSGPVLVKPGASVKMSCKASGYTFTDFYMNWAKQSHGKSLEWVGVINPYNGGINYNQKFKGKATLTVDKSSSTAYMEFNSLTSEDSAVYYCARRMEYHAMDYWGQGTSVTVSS VL: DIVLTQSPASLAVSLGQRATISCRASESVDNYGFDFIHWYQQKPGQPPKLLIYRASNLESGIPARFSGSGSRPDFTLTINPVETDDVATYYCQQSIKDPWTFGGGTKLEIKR
READOUT VALUE: 8.68

BINDER: F1.60.9 human-murine chimeric antibody (antibody, human IgG1, kappa, V domains shown, Chimeric, human IgG1 / kappa) VH: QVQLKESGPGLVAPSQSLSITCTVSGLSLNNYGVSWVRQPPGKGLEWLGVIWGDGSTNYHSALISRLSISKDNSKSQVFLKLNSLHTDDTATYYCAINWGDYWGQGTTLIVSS VL: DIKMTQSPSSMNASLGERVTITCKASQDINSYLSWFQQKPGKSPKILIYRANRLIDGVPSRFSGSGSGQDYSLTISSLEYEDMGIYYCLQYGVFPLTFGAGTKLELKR
READOUT VALUE: 9.21

BINDER: F1.62.10 human-murine chimeric antibody (antibody, human IgG1, kappa, V domains shown, Chimeric, human IgG1 / kappa) VH: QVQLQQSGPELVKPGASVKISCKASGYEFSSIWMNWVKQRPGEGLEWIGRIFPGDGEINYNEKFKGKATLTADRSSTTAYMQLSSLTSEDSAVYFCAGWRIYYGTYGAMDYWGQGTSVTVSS VL: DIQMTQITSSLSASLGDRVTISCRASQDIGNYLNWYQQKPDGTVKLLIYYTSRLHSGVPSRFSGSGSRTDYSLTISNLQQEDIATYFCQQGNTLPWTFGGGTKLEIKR
READOUT VALUE: 8.88

BINDER: F1.172.13 human-murine chimeric antibody (antibody, human IgG1, kappa, V domains shown, Chimeric, human IgG1 / kappa) VH: QVTLKESGPGILQSSQTLSLTCSFSGFSLSTSGMGVSWIRQPSGKGLEWLAHIYWDDDKRYNPSLKSRLTISKDTSRNQVFLKITSVDTADTATYYCARAPPPNWDEYYFDYWGQGTTLTVSS VL: DIQMTQSPASLSASVGETVTITCRASGNIHNSLAWYQQKQGKSPQLLVHNAKTLADGVPSRFSGSGSGTQYSLKINSLQPEDFGSYYCQHFWSTPPFGGGTKLEIKR
READOUT VALUE: 9.23

BINDER: F1.17.1 human-murine chimeric antibody (antibody, human IgG1, kappa, V domains shown, Chimeric, human IgG1 / kappa) VH: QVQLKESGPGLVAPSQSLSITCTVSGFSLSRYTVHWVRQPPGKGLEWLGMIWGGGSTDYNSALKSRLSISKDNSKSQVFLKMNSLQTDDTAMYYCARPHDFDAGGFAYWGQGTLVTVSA VL: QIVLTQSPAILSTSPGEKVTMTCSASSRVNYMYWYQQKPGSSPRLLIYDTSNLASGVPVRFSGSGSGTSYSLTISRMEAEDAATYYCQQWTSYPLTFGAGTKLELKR
READOUT VALUE: 9.36

BINDER: F1.200.11 human-murine chimeric antibody (antibody, human IgG1, kappa, V domains shown, Chimeric, human IgG1 / kappa) VH: QNQLVQSGPELKKPGETVKISCKASGYTFTTAGMQWVQKMPGKGFKWIGWINTLSGEPKYAEDFKGRFAFSLETSATTAYLQISNLKNEDTATYFCARAYYSNLYWYFDVWGTGTTVTVSS VL: DIVMTQSQKFMSTTVGDRVTITCKASQNVVTAVAWYQQKPGQSPKVLIYSASNRYSGVPDRFTGSGSGTDFTLTISNMHSEDLANYFCHQYSSYPFTFGSGTKLEIKR
READOUT VALUE: 7.95

BINDER: F1.231.15 human-murine chimeric antibody (antibody, human IgG1, V domains shown, Chimeric: murine V regions on human IgG1 heavy constant region and kappa light constant region) VH: QVQLQQPGAELVKPGASVKLSCKTSGYTFTIYWMQWVKQRPGRGLEWIGRIDPHSGDTHYNENFTTKVTLTVDETSNTAYMHLSGLTSEDSAVYYCARRDYSYYVLDYWGQGTSVTVSS VL: DVVLTQTPLSLPVSLGDQASISCRSSQSLVHINGDTYLHWYLQKPGQSPKLLIYTVFNRFSGVPDRFSGSGSGTDFTLKISRVEAEDLGAYFCSQSTHVPYTFGGGTKLEIKR
READOUT VALUE: 8.93
